FYI, the data here is from patent US20100311714A1.

TARGET: PI3K delta (Homo sapiens, UniProt O00329)
Construct: for the full-length p110-d subunit are generated and fused by overlapping PCR; His tag (C); made in house; host or cells: baculovirus BV1060; Tn5 (Trichoplusia ni) or TiniPro insect cells
Sequence (O00329 with tags, fused parts or gaps limits assumed): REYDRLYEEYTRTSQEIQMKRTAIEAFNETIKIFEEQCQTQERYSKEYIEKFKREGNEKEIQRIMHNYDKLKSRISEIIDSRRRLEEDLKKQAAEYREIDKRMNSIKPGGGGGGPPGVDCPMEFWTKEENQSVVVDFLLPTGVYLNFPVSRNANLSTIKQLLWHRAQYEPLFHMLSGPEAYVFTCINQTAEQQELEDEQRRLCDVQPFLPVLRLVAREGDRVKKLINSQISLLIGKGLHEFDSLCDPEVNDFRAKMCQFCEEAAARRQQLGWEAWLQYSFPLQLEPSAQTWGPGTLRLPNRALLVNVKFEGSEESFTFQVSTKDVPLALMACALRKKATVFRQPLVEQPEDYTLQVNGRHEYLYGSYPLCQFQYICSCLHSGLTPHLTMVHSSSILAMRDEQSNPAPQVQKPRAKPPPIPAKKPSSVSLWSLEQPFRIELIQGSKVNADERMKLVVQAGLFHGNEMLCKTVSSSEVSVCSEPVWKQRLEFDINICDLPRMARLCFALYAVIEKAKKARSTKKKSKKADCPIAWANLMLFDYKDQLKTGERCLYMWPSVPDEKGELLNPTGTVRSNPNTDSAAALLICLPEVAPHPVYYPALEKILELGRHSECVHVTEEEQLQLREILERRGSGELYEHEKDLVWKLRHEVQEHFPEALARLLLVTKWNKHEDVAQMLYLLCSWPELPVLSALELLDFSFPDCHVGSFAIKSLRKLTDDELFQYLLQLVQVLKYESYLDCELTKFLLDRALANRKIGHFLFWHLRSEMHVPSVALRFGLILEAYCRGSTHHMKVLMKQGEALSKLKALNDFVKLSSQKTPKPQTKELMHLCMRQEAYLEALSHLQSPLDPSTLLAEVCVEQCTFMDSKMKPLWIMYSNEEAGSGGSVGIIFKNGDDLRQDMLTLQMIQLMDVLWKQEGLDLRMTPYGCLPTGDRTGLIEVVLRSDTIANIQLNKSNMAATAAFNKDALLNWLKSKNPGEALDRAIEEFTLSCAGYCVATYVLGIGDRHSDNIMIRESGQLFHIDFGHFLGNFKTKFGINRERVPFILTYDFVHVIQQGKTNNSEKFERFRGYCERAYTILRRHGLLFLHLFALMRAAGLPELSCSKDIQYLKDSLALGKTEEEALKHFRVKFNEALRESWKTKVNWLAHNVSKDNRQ
PROTOCOL DESCRIPTION: PI3K delta kinase assay (Kinase-Glo luminescence)
Type: biochemical
STUDY CONDITIONS: read-out: EPK_PI3Kdelta/IC50
Measured pIC50, listed per entry.
Keep in mind that pIC50 stands for -log10 of concentration in molar terms.

{"COMPOUND": "Cc1nc(C(C)(C)O)ccc1-n1c(=O)n(C)c2cnc3ccc(-c4cncc(C(C)(C)C#N)c4)cc3c21 [Example 31.6]", "TARGET": "PI3K delta (Homo sapiens, UniProt O00329)", "pIC50": 8.15}
{"COMPOUND": "COCC(=O)Nc1ccc(-n2c(=O)n(C)c3cnc4ccc(-c5cncc(N)c5)cc4c32)c(C)n1 [Example 20.1]", "TARGET": "PI3K delta (Homo sapiens, UniProt O00329)", "pIC50": 7.47}

## Task Reported pIC50, compound CNc1ccc(-c2ccc3ncc4c(c3c2)n(-c2ccc(NC(=O)COC)nc2C)c(=O)n4C)cn1 [Example 20.4] : ____
## Result 7.11

## Task And then CNc1ncc(-c2ccc3ncc4c(c3c2)n(-c2ccc(N(C)C)nc2C)c(=O)n4C)cn1 [Example 19.1] , what is it?
## Result 7.92

* * *

TARGET: PI3K alfa (Homo sapiens, UniProt P42336)
Construct: His tag (C); made in house; host or cells: baculovirus BV1075; Tn5 (Trichoplusia ni) or TiniPro insect cells
Sequence (P42336 with tags, fused parts or gaps limits assumed): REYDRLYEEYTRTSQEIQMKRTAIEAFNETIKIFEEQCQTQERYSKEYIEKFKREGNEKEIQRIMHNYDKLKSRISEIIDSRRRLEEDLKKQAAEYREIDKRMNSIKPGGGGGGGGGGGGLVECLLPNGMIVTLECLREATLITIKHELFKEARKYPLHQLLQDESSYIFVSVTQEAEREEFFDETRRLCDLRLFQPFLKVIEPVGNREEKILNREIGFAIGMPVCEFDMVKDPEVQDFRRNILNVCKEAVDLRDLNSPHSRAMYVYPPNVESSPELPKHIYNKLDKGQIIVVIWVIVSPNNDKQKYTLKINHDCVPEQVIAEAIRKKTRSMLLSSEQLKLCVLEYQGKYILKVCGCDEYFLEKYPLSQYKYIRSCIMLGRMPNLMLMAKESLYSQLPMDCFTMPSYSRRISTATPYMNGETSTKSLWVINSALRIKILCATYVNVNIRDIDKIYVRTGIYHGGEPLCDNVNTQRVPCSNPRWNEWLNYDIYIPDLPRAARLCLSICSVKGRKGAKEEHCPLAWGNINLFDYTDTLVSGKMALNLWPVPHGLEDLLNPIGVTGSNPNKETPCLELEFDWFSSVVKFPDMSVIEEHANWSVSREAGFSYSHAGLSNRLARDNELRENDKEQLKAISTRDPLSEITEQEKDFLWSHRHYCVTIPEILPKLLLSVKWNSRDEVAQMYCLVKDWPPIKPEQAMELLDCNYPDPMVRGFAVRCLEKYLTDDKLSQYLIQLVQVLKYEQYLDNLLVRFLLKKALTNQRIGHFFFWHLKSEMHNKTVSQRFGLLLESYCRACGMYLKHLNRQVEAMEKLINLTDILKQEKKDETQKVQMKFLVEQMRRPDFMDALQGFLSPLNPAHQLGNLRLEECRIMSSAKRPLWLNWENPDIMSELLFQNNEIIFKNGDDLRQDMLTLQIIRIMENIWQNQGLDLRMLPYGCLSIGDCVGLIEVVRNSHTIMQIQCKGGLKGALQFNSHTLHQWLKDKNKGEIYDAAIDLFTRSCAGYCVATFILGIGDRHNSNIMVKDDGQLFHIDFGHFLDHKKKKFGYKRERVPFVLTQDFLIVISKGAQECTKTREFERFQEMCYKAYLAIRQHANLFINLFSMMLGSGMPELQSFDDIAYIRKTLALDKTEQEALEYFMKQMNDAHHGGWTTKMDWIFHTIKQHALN
PROTOCOL DESCRIPTION: PI3K alpha kinase assay (Kinase-Glo luminescence)
Format: biochemical
STUDY CONDITIONS: read-out: EPK_PI3Kalfa/IC50
IC50 vs 40 nM: less than gives Criterion met; not less than gives Criterion not met.

Known results for compounds:
{"COMPOUND": "Cc1nc(F)ccc1-n1c(=O)n(C)c2cnc3ccc(-c4cnc(N)c(CO)c4)cc3c21", "ASSIGNED CATEGORY": "Criterion not met"}
{"COMPOUND": "COc1cc(-c2ccc3ncc4c(c3c2)n(-c2ccc(N3CCC(OC)C3)nc2C)c(=O)n4C)cnc1CO (stereo not shown)", "ASSIGNED CATEGORY": "Criterion met"}
{"COMPOUND": "Cc1nc(N2CCC(O)C2)ccc1-n1c(=O)n(C)c2cnc3ccc(-c4cncc(OC(C)C)c4)cc3c21 (stereo not shown)", "ASSIGNED CATEGORY": "Criterion met"}
{"COMPOUND": "CNc1ncc(-c2ccc3ncc4c(c3c2)n(-c2ccc(N3CC(O)C3)nc2C)c(=O)n4C)cc1C(F)(F)F", "ASSIGNED CATEGORY": "Criterion met"}

## Task # check: IC50 < 40 nM for Cc1nc(F)ccc1-n1c(=O)n(C)c2cnc3ccc(-c4cncc(N5CCC5)c4)cc3c21
## Result Criterion not met

## Task And then CNc1ccc(-c2ccc3ncc4c(c3c2)n(-c2ccc(N3CCCC3)nc2C)c(=O)n4C)cn1 , what is it?
## Result Criterion met

## Task And then Cc1nc(N2CCCC2)ccc1-n1c(=O)n(C)c2cnc3ccc(-c4cncc(C(C)(C)O)c4)cc3c21 , what is it?
## Result Criterion met

## Task And then CNc1cc(-c2ccc3ncc4c(c3c2)n(-c2ccc(C(F)(F)F)nc2C)c(=O)n4C)cnc1CO , what is it?
## Result Criterion met

## Task And then CCNc1cc(-c2ccc3ncc4c(c3c2)n(-c2ccc(N3CC(F)(F)C3)nc2C)c(=O)n4C)cnc1CO , what is it?
## Result Criterion met

## Task And then CCNc1ncc(-c2ccc3ncc4c(c3c2)n(-c2ccc(N3CC[C@@H](O)C3)nc2C)c(=O)n4C)cn1 , what is it?
## Result Criterion not met

* * *

PROTOCOL DESCRIPTION: High-throughput equilibrium solubility at pH 6.8
Format: physicochemical
STUDY CONDITIONS: pH 6.8, aqueous buffer, thermodynamic from solid; read-out: HT-Eq Sol/pH 6.8
RECORDED ENDPOINT: log10 solubility thermodynamic (log10 of the value in µg/mL)
Field: value | Transform: log10 | Quantity: solubility thermodynamic | Unit: µg/mL

{"COMPOUND": "CNc1ccc(-c2ccc3ncc4c(c3c2)n(-c2cccnc2C)c(=O)n4C)cn1", "VAL": 1.75}
{"COMPOUND": "COC1CCN(c2ccc(-n3c(=O)n(C)c4cnc5ccc(-c6cncc(C(C)(C)O)c6)cc5c43)c(C)n2)C1 (stereo not drawn)", "VAL": 2.63}
{"COMPOUND": "COc1nc(N2CCNCC2)ccc1-n1c(=O)n(C)c2cnc3ccc(-c4cnc5c(ccn5C)c4)cc3c21", "VAL": 1.32}
{"COMPOUND": "CCNc1cc(-c2ccc3ncc4c(c3c2)n(-c2ccc(N3CC(O)C3)nc2C)c(=O)n4C)cnc1CO", "VAL": 1.76}
{"COMPOUND": "CNc1ncc(-c2ccc3ncc4c(c3c2)n(-c2ccc(F)nc2C)c(=O)n4C)cc1C(F)(F)F", "VAL": 1.30}
{"COMPOUND": "Cc1nc(F)ccc1-n1c(=O)n(C)c2cnc3ccc(-c4cncc(N)c4)cc3c21", "VAL": 2.27}
{"COMPOUND": "CCOc1ccc(-c2ccc3ncc4c(c3c2)n(-c2cnccc2C)c(=O)n4C)cn1", "VAL": 1.70}
{"COMPOUND": "Cc1ncccc1-n1c(=O)n(C)c2cnc3ccc(-c4cncc(N5CCC5)c4)cc3c21", "VAL": 0.90}

## Task Reported log10 solubility thermodynamic, compound Cc1ccncc1-n1c(=O)n(C)c2cnc3ccc(-c4ccc(N(C)C)nc4)cc3c21 : ____
## Result 0.30

## Task And then Cc1nc(C(F)(F)F)ccc1-n1c(=O)n(C)c2cnc3ccc(-c4cncc(C(C)(C)O)c4)cc3c21 , what is it?
## Result 2.63

## Task And then CCNc1cc(-c2ccc3ncc4c(c3c2)n(-c2ccc(N(C)CCOC)nc2C)c(=O)n4C)cnc1C , what is it?
## Result 2.15

## Task And then CCOc1cc(-c2ccc3ncc4c(c3c2)n(-c2ccc(N3CCC3)nc2C)c(=O)n4C)cnc1COC , what is it?
## Result 1.84

## Task And then COc1ncccc1-n1c(=O)n(C)c2cnc3ccc(-c4cnc(N(C)C)nc4)cc3c21 , what is it?
## Result 0.48

## Task And then COc1ncc(-c2ccc3ncc4c(c3c2)n(-c2ccc(N3CC(O)C3)nc2C)c(=O)n4C)c(OC)n1 , what is it?
## Result 1.18

## Task And then Cc1nc(F)ccc1-n1c(=O)n(C)c2cnc3ccc(-c4cncc(C(C)(C)O)c4)cc3c21 , what is it?
## Result 2.57

## Task And then Cc1nc(F)ccc1-n1c(=O)n(C)c2cnc3ccc(-c4cnc(N)c(C(F)(F)F)c4)cc3c21 , what is it?
## Result 1.67

## Task And then COCCN(C)c1ccc(-n2c(=O)n(C)c3cnc4ccc(-c5cncc(N)c5)cc4c32)c(C)n1 , what is it?
## Result 1.75

## Task And then CNC(=O)c1ccc(-c2ccc3ncc4c(c3c2)n(-c2ncccc2C)c(=O)n4C)cc1 , what is it?
## Result 1.00

## Task And then CNc1ncc(-c2ccc3ncc4c(c3c2)n(-c2ccc(C)nc2C)c(=O)n4C)cn1 , what is it?
## Result 0.90

## Task And then Cc1cc(F)ncc1-n1c(=O)n(C)c2cnc3ccc(-c4cnc5c(ccn5C)c4)cc3c21 , what is it?
## Result 0.30

## Task And then CNc1ncc(-c2ccc3ncc4c(c3c2)n(-c2ccc(C(C)(C)O)nc2C)c(=O)n4C)cc1F , what is it?
## Result 0.48

## Task And then Cc1cccnc1-n1c(=O)n(C)c2cnc3ccc(-c4cnc(N)c(C(F)(F)F)c4)cc3c21 , what is it?
## Result 1.08

## Task And then CCOc1ccc(-c2ccc3ncc4c(c3c2)n(-c2cccnc2F)c(=O)n4C)cn1 , what is it?
## Result 0.30

* * *

Measured log10(solubility thermodynamic), listed per entry.
PROTOCOL DESCRIPTION: High-throughput equilibrium solubility at pH 6.8
Type: physicochemical
STUDY CONDITIONS: pH 6.8, aqueous buffer, thermodynamic from solid; read-out: HT-Eq Sol/pH 6.8
Description: The physicochemical properties of relevance for the absorption of the compound, such as the solubility and the membrane permeability, especially at a pH close to neutral pH can be measured using the procedure as described by L. ZHOU et al. in JOURNAL OF PHARMACEUTICAL SCIENCES, VOL. 96, NO. 11, p. 3052-3071 (2007) for the solubility at pH 6.8 and the procedure as described by F. Wohnsland and B. Faller in Journal of Medicinal Chemistry Vol 44, p. […]
Field: value | Transform: log10 | Quantity: solubility thermodynamic | Unit: µg/mL

Please review the following examples before continuing.
{"COMPOUND STRUCTURE STRING": "CCOc1cc(-c2ccc3ncc4c(c3c2)n(-c2ccc(OCCOC)nc2C)c(=O)n4C)cnc1COC", "VAL": 0.85}
{"COMPOUND STRUCTURE STRING": "CCNc1cc(-c2ccc3ncc4c(c3c2)n(-c2cnc(F)cc2C)c(=O)n4C)cnc1C", "VAL": 1.85}
{"COMPOUND STRUCTURE STRING": "CCNc1cc(-c2ccc3ncc4c(c3c2)n(-c2cccnc2C)c(=O)n4C)cnc1CO", "VAL": 1.43}
{"COMPOUND STRUCTURE STRING": "Cc1cccnc1-n1c(=O)n(C)c2cnc3ccc(-c4ccc(N(C)C)nc4)cc3c21", "VAL": 1.59}
{"COMPOUND STRUCTURE STRING": "CCOc1ccc(-c2ccc3ncc4c(c3c2)n(-c2cccnc2C)c(=O)n4C)cn1", "VAL": 0.48}

## Task Reported log10(solubility thermodynamic), compound Cc1cccnc1-n1c(=O)n(C)c2cnc3ccc(-c4ccc(C(N)=O)cc4)cc3c21 : ____
## Result 0.70

## Task And then Cc1ncccc1-n1c(=O)n(C)c2cnc3ccc(-c4ccc(C(N)=O)cc4)cc3c21 , what is it?
## Result 1.18
